- PROCEDURE_SUMMARY: viability gain of MRP-1-high H69AR cells under doxorubicin, pilot screen, MRP-1 activator project, CellTiter-Glo, duplicate (AID 807);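 further: compound pretreatment 18-22 h then 72 h combined with doxorubicin; 0% = doxorubicin alone and 100% = vehicle without doxorubicin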
- ASSAY_CONDITIONS: H69AR viability with doxorubicin, CellTiter-Glo luminescence; at 10 µM; stronger effect = higher value

[
  {
    "MOLECULE": "CCOC(=O)C(C(=O)OCC)c1cc(Br)c2noc3c2c1C(=O)c1ccccc1-3",
    "ENDPOINT_UNIT": "%",
    "viability increase": -8.25
  },
  {
    "MOLECULE": "COc1ccc(-c2nc(CS(=O)CC(=O)NCc3cccnc3)c(C)o2)cc1OC (configuration not stated)",
    "ENDPOINT_UNIT": "%",
    "viability increase": -2.64
  },
  {
    "MOLECULE": "CCOC(=O)N1CCN(C(=O)CCSc2ccccc2)CC1",
    "ENDPOINT_UNIT": "%",
    "viability increase": 0.84
  },
  {
    "MOLECULE": "COC(=O)c1nc2n(n1)C(c1cccc(Cl)c1)C1=C(CC(C)(C)CC1=O)N2 (configuration not stated)",
    "ENDPOINT_UNIT": "%",
    "viability increase": -2.72
  },
  {
    "MOLECULE": "COc1ccc(NC(=O)CN2CC(c3ccccc3)CC2=O)cc1OC (configuration not stated)",
    "ENDPOINT_UNIT": "%",
    "viability increase": -1.08
  },
  {
    "MOLECULE": "CC(C)c1ccc(N(CC(=O)O)S(=O)(=O)c2cccnc2)cc1",
    "ENDPOINT_UNIT": "%",
    "viability increase": -1.28
  },
  {
    "MOLECULE": "Cc1ccc(Cl)cc1N1CCN(C(=O)COc2ccc(S(=O)(=O)NC(C)C)cc2)CC1",
    "ENDPOINT_UNIT": "%",
    "viability increase": -4.67
  },
  {
    "MOLECULE": "Cc1csc2nc(CNS(=O)(=O)N(C)C)cn12",
    "ENDPOINT_UNIT": "%",
    "viability increase": -3.46
  },
  {
    "MOLECULE": "COCCNC(=O)CN1CCOc2ccccc21",
    "ENDPOINT_UNIT": "%",
    "viability increase": -4.65
  },
  {
    "MOLECULE": "O=C(CSc1ncccn1)NCCc1ccccc1",
    "ENDPOINT_UNIT": "%",
    "viability increase": -1.26
  },
  {
    "MOLECULE": "CCCCn1c(=O)cc(N2CCOCC2)[nH]c1=O",
    "ENDPOINT_UNIT": "%",
    "viability increase": 0.83
  },
  {
    "MOLECULE": "CCN1CCN(c2cc(C)c3cc(NC(=O)c4ccncc4)ccc3n2)CC1",
    "ENDPOINT_UNIT": "%",
    "viability increase": -4.96
  },
  {
    "MOLECULE": "O=C(Nc1ccc(Br)cc1F)C1CCN(c2nnc(-n3cccc3)s2)CC1",
    "ENDPOINT_UNIT": "%",
    "viability increase": 0.53
  },
  {
    "MOLECULE": "COc1ccc(NC(=O)c2c(NC(=O)CNCc3ccco3)sc3c2CCC3)c(OC)c1",
    "ENDPOINT_UNIT": "%",
    "viability increase": -1.44
  },
  {
    "MOLECULE": "Cc1noc(NS(=O)(=O)c2ccc(NC(=O)c3cnc4scc(C)n4c3=O)cc2)c1C",
    "ENDPOINT_UNIT": "%",
    "viability increase": 1.99
  },
  {
    "MOLECULE": "CCOC(=O)C1=C(C)OC(N)=C(C#N)C1c1c(C)nn(-c2ccccc2)c1Cl (configuration not stated)",
    "ENDPOINT_UNIT": "%",
    "viability increase": -3.98
  },
  {
    "MOLECULE": "COCCNC(=O)Cn1cc2c(n1)CCC(C)C2 (configuration not stated)",
    "ENDPOINT_UNIT": "%",
    "viability increase": 0.11
  },
  {
    "MOLECULE": "CCn1c(C2CC(=O)N(Cc3ccccc3)C2)nc2ccccc21 (configuration not stated)",
    "ENDPOINT_UNIT": "%",
    "viability increase": -2.06
  },
  {
    "MOLECULE": "O=C(CCS(=O)(=O)c1cccc2nonc12)N1CCOCC1",
    "ENDPOINT_UNIT": "%",
    "viability increase": -2.16
  },
  {
    "MOLECULE": "COC(=O)C(C)Sc1nnc(Cc2cc(=O)[nH]c(=O)[nH]2)n1-c1cccc(OC)c1 (configuration not stated)",
    "ENDPOINT_UNIT": "%",
    "viability increase": 0.21
  },
  {
    "MOLECULE": "O=C(CSc1cn(CCNC(=O)c2cccs2)c2ccccc12)NCC1CCCO1 (configuration not stated)",
    "ENDPOINT_UNIT": "%",
    "viability increase": 0.16
  },
  {
    "MOLECULE": "COc1ccc(C2C(C(=O)N3CCN(c4ccc(OC)cc4)CC3)c3ccccc3C(=O)N2C)cc1 (configuration not stated)",
    "ENDPOINT_UNIT": "%",
    "viability increase": -0.98
  }
]
